Data origin, for the record: patent EP1203770A1

# system.tested: HIV-1 protease (Human immunodeficiency virus type 1 group M subtype B)
# Construct: The protease (or proteinase), consisting of only 99 amino acids, is among the smallest enzymes known
# protocol.description: In vitro HIV protease inhibitory assay (HIV Protease FITC Assay)
# Format: biochemical
# measurement.setup: HIV-1 Dose 0.370 uM; read-out: HIV-1 Protease % Inhib
Property: inhibition at 0.37 µM; scope: individual compounds
Could you give me the number in %? Just the number is fine.

Some solved entries appear below for comparison.
CCC(Cc1cccc(OC)c1)c1cc(O)c(C(c2ccccc2)C2CC2)c(=O)o1 (stereo not shown) : 16.5
CCC(Cc1ccccc1)c1cc(O)c(C(c2cccc(NC(=O)c3ccc(C#N)cc3)c2)C2CC2)c(=O)o1 (stereo not shown) : 19.6
O=C(CCn1ccc2ccccc21)Nc1cccc(C(c2c(O)cc(C(CC3CC3)CC3CC3)oc2=O)C2CC2)c1 (stereo not shown) : 24.8
CCC(Cc1ccccc1)c1cc(O)c(C(c2cccc(NC(=O)Cc3ccccn3)c2)C2CC2)c(=O)o1 (stereo not shown) : 57.4

Attention now shifts to the item below.
response.value for CCC(Cc1ccccc1)c1cc(O)c(C(c2cccc(NC(=O)[C@H](C)NC(=O)OC(C)(C)C)c2)C2CC2)c(=O)o1 (stereo partly shown) (field: inhibition at 0.37 µM) = 72.1
